assay: Half life in rat at 1 mg/kg, iv; assay type: ADME, organism-based; parameters: dose 1 mg/kg, route intravenous; conditions: in vivo

{"columns": ["SMI", "UNIT_SPEC", "half-life"],
 "data": [
  ["COCCOc1ccc(N2CCN(CCn3ncc4c3nc(N)n3nc(-c5ccco5)nc43)CC2)cc1.Cl", "h", 2.1]
]}

* * *

Target chain: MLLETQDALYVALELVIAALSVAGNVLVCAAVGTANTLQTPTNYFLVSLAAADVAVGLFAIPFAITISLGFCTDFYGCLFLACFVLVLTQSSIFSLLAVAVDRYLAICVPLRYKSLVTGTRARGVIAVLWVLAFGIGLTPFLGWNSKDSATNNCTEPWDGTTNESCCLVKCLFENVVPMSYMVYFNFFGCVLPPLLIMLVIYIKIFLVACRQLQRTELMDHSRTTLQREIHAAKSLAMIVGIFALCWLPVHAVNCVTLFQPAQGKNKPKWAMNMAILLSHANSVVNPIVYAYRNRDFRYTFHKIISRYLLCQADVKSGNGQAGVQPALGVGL
pKi: −log10 of the molar value.

{"columns": ["SMI", "pKi"],
 "data": [
  ["COCCOc1ccc(N2CCN(CCn3ncc4c3nc(N)n3nc(-c5ccco5)nc43)CC2)cc1", "< 5.77"]
]}
